Would you kindly list MIC for each of these molecules?
tested on: Escherichia coli; experiment: Antibacterial activity against Escherichia coli ATCC 25922 by CLSI based broth microdilution method; type: functional
Give bare numbers, in µg/mL.

See these solved cases before continuing.
C[C@H](O)c1nccn1Cc1cc(-c2ccc(C#C[C@@H]3[C@H]4CN(CCCC(=O)O)C[C@@H]34)cc2)on1: 2
C[C@H](O)CN1C[C@@H]2[C@@H](C#Cc3ccc(-c4cc([C@@H](CN)n5ccnc5[C@H](C)O)no4)cc3)[C@@H]2C1: 1
C[C@H](O)c1nccn1Cc1cc(C#Cc2ccc(CCCO)cc2)on1: 0.5
C[C@H](O)c1nccn1Cc1cc(-c2ccc(C#CC34CC(N)(C3)C4)cc2)no1: 0.5
COCC(O)CN1C[C@@H]2[C@@H](C#Cc3ccc(-c4cc(Cn5ccnc5[C@H](C)O)no4)cc3)[C@@H]2C1 (mixture of isomers): 0.5

State the recorded MIC for every item in the following list.
1. C[C@H](O)c1nccn1Cc1cc(-c2ccc(C#CCCCO)cc2)on1
2. C[C@H](O)c1nccn1Cc1cc(-c2ccc(C#CC3(N)CC3)cc2)no1
3. C[C@H](O)c1nccn1[C@H](CN)c1cc(-c2ccc(C#C[C@@H]3[C@H]4CN(C=O)C[C@@H]34)cc2)on1
4. C[C@H](O)c1nccn1[C@H](CN)c1cc(-c2ccc(C#CC3(N)CC3)cc2)on1
5. C[C@H](O)c1nccn1Cc1cc(C#Cc2ccc(OC3CN(CCCO)C3)cc2)on1
6. C[C@H](O)c1nccn1Cc1cc(-c2ccc(C#CC34CC(N)(C3)C4)cc2)on1

A:
1: 1; 2: 1; 3: 1; 4: 2; 5: 2; 6: 0.25

###

experiment: Plasma concentration in Hartley guinea pig at 180 mg/kg, iv measured after 30 mins by LC-MS/MS analysis; format: ADME, organism-based, Cavia porcellus
endpoint.label: concentration at 0.5 h (µg/mL)
One number for each entry, in µg/mL.

Q: // query concentration at 0.5 h value for entry C[C@H](O)c1nccn1[C@H](CN)c1cc(-c2ccc(C#C[C@@H]3[C@H]4CN(C=O)C[C@@H]34)cc2)on1
A: 233

###

test: Inhibition of Escherichia coli LpxC using DP-3-0-(R-3-hydroxymyristoy1)-N-acetylglucosamine as substrate incubated for 120 mins by fluorescamine assay
Would you kindly list IC50 for each of these compounds?
# output: number + unit

See these solved cases before continuing.
C[C@H](O)c1nccn1Cc1cc(-c2ccc(C#C[C@@H]3[C@H]4CN(CCCC(=O)O)C[C@@H]34)cc2)on1: 101 nM
COCC(O)CN1C[C@@H]2[C@@H](C#Cc3ccc(-c4cc(Cn5ccnc5[C@H](C)O)no4)cc3)[C@@H]2C1 (mixture of isomers): 71 nM
C[C@H](O)c1nccn1Cc1cc(C#Cc2ccc(CCCO)cc2)on1: 31 nM
COCCN1CCN(c2ccc(C#Cc3cc(Cn4ccnc4[C@H](C)O)no3)cc2)CC1: 71 nM

Okay, next one:
Q: // query IC50 value for entry C[C@H](O)c1nccn1Cc1cc(-c2ccc(C#C[C@H]3C[C@H](O)C3)cc2)on1
A: 15 nM
